Overview of reported Ratio (-BP/+BP), DF-25000007 across a group of binders:
Assayed target: T1, IL-18 binding protein (IL-18BP) (UniProt O95998 31-194)
T1 sequence (looked up): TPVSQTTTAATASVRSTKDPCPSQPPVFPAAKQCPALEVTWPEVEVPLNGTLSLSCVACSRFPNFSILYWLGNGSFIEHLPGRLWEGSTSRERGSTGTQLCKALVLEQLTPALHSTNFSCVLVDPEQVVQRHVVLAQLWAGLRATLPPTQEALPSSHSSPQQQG
Protocol description: cell-based or functional assay
Quantity: Ratio (-BP/+BP), DF-25000007

INSERT INTO assay_data (binder, meas_value) VALUES
  ('IL-18 variant G3P, E6R, D54W, S55Q, T63S, N91T, R104H (ligand) YFPKLRSKLSVIRNLNDQVLFIDQGNRPLFEDMTDSDMRDNAPRTIFIISMYKWQQPRGMAVSISVKSEKISTLSSENKIISFKEMNPPDTIKDTKSDIIFFQHSVPGHDNKMQFESSSYEGYFLASEKERDLFKLILKKEDELGDRSIMFTVQNED', 0.78),
  ('IL-18 variant G3L, E6Q, D54Y, S55P, T63S, N91S, R104Q (ligand) YFLKLQSKLSVIRNLNDQVLFIDQGNRPLFEDMTDSDMRDNAPRTIFIISMYKYPQPRGMAVSISVKSEKISTLSSENKIISFKEMNPPDSIKDTKSDIIFFQQSVPGHDNKMQFESSSYEGYFLASEKERDLFKLILKKEDELGDRSIMFTVQNED', 3.8);
